- PROCEDURE_DETAILS: chemical genetic growth profiling, strain panel (AID 1159580);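 further: tested at 20 µM; growth read once vehicle control cultures reached saturation at 30 °C; 1 = growth at the plate median or of vehicle wells; lower values mean less growth of the strain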
- CONDITION_DETAILS: S. cerevisiae deletion strains, growth OD, locus YER123W, strain YCK3, hits give low values
In all, about 5,500 compounds went through this assay and about 2,000 (36%) were called active. Inconclusive results (about 18%) are left out. This is one part of the list.
Doc: threshold 0.9 (exclusive). Items with normalized growth beneath it return yes (1); others return no (0).

Before answering, review these 3 worked examples.
CC1(C)C/C(=N/Nc2ccc(C(F)(F)F)cc2)c2cc(C(C)(C)C)c(O)c(O)c2O1 ... yes (1)
COc1ccccc1C(C[N+](=O)[O-])c1c(N)n(C)c(=O)n(C)c1=O (stereo unspecified) ... yes (1)
CN(C)/C=C/C(=O)c1ccc(C#Cc2ccccc2)cc1 ... no (0)

Okay, now this compound:
Here's an entry: `CC(C)(O)C#Cc1ccc(/C=N\Nc2c(Cl)cc(Cl)cc2Cl)cc1` . Is its normalized growth below 0.9?
yes (1)

* * *

- PROCEDURE_DETAILS: chemical genetic growth profiling, strain panel (AID 1159580)
- CONDITION_DETAILS: S. cerevisiae deletion strains, growth OD, locus YER110C, hits give low values
Out of some 5,500 compounds screened, about 2,000 (36%) were called active. Roughly 18% stayed inconclusive and do not appear here. This is one part of the list.
Doc: threshold 1 (exclusive). Items with normalized growth beneath it return condition met; others return condition not met.

Here's an entry: CC(=O)O[C@H]1CC[C@@]2(C)C(=CCC3C2CC[C@@]2(C)C3CC[C@@H]2C(C)CCCC(C)C)C1 (stereo not given in full) . Is its normalized growth below 1?
condition not met

Here's an entry: `COc1cc(O)cc(/C=C/c2ccccc2)c1` . Is its normalized growth below 1?
condition met

Here's an entry: CC12CCC3C(CC=C4CC(O)CCC43C)C1CCC2=O (stereo not given) . Is its normalized growth below 1?
condition not met

Here's an entry: `O=C(O)P(=O)(O)O` . Is its normalized growth below 1?
condition met

Here's an entry: CCC(CCC(C)C1CCC2C3CC=C4C[C@@H](OC(C)=O)CC[C@]4(C)C3CC[C@]12C)C(C)C (stereo not given in full) . Is its normalized growth below 1?
condition met

* * *

- PROCEDURE_DETAILS: chemical genetic growth profiling, strain panel (AID 1159580)
- CONDITION_DETAILS: S. cerevisiae deletion strains, growth OD, locus YLR403W, strain SFP1
The campaign covered roughly 5,500 compounds. About 2,000 (36%) were called active. Not shown: some 18% with an inconclusive outcome. No stated cut-off is given here; in the data, active means normalized growth mostly below about 0.91 (no sharp cut-off); inconclusive means no clear call, values can overlap the other calls; inactive means mostly above about 0.92. The list shows a part of the results.
Respond using exactly one of the listed classes: active, inactive

CN(C)/C=C/C(=O)c1ccc(C#Cc2ccccc2)cc1 ... inactive

Okay, now this compound:
Returns: the outcome recorded for `O=C1/C(=C/c2c(F)cccc2Cl)Cc2ccccc21` in this assay.
inactive

* * *

- PROCEDURE_DETAILS: chemical genetic growth profiling, strain panel (AID 1159580)
- CONDITION_DETAILS: S. cerevisiae deletion strains, growth OD, locus YDL017W, strain CDC7, hits give low values
The whole screen tested about 5,500 compounds, of which about 2,000 (36%) were called active. Roughly 18% stayed inconclusive and do not appear here. Some of the results follow.
MEASURED_QUANTITY: normalized growth
// no unit string in output, number only

O=C(Nc1ccc(Cl)cc1Cl)c1cnccc1C(F)(F)F ... 0.984
COc1cc(C(=O)Oc2c(Cl)cc(Cl)cc2C=Nc2ccc([N+](=O)[O-])cc2C#N)cc(OC)c1OC ... 0.974
CCC1CCC(C)N(C(=S)Nc2ccc(Br)cc2C)C1 (stereo not given) ... 0.966

Fill blank: measured normalized growth of the compound `COc1cc(N=Cc2cc(Cl)cc(Cl)c2OC(=O)c2cc(OC)c(OC)c(OC)c2)c(OC)cc1Cl` is ____.
0.981

Fill blank: measured normalized growth of the compound `COc1cc(C(=O)Oc2c(Cl)cc(Cl)cc2C=Nc2cccc(C(F)(F)F)c2)cc(OC)c1OC` is ____.
0.974

* * *

- PROCEDURE_DETAILS: chemical genetic growth profiling, strain panel (AID 1159580)
- CONDITION_DETAILS: S. cerevisiae deletion strains, growth OD, locus YMR205C, strain PFK2, hits give low values
Out of some 5,500 compounds screened, about 2,000 (36%) were called active. Not shown: some 18% with an inconclusive outcome. The list shows a part of the results.
MEASURED_QUANTITY: normalized growth
// no unit string in output, number only

COc1cc(/C=C/C(=O)O)cc(OC)c1OC ... 0.984

Fill blank: measured normalized growth of the molecule CC[C@@H]1[C@@H](O)N2C3C[C@H]1C1C(O)[C@]4(C[C@@H]12)c1ccccc1N(C)[C@@H]34 (some centres not stated) is ____.
1.03

Fill blank: measured normalized growth of the molecule CC1(C)CC2C1CCC1(C)OC2(C)CCC1O (configuration not stated) is ____.
1.04

Fill blank: measured normalized growth of the molecule `COc1cc(/C=C/C(=O)O)ccc1O` is ____.
1.01

Fill blank: measured normalized growth of the molecule CC1(C)CC2C1CCC1(C)OC1CCC2(C)O (configuration not stated) is ____.
1.06

Fill blank: measured normalized growth of the molecule `COc1ccc(C=CC(=O)c2ccc(O)cc2O)cc1OC` is ____.
0.759

Fill blank: measured normalized growth of the molecule `COS(C)(=O)=O` is ____.
1

* * *

- PROCEDURE_DETAILS: chemical genetic growth profiling, strain panel (AID 1159580)
- CONDITION_DETAILS: S. cerevisiae deletion strains, growth OD, locus YLR058C, strain SHM2, hits give low values
The campaign covered roughly 5,500 compounds. About 2,000 (36%) were called active. Inconclusive results (about 18%) are left out. This is one part of the list.
MEASURED_QUANTITY: normalized growth
// no unit string in output, number only

Solved entries:
CC[C@]12CCCN3CCc4c(n(c5ccccc45)C(=O)C1)[C@@H]32 ... 0.991
C=CCN1CC[C@]23c4c5ccc(O)c4OC2C(=O)CC[C@@]3(O)[C@H]1C5 (stereo not given in full) ... 1.01
CCOP(=S)(OCC)Oc1ccc2c(C)c(Cl)c(=O)oc2c1 ... 0.971

Now take the following compound into account.
Fill blank: measured normalized growth of the compound `CCn1cc(C(=O)O)c(=O)c2cnc(N3CCNCC3)nc21` is ____.
0.988

* * *

- PROCEDURE_DETAILS: chemical genetic growth profiling, strain panel (AID 1159580);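 further: tested at 20 µM; growth read once vehicle control cultures reached saturation at 30 °C; 1 = growth at the plate median or of vehicle wells; lower values mean less growth of the strain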
- CONDITION_DETAILS: S. cerevisiae deletion strains, growth OD, locus YDR069C, strain doa4, hits give low values
In all, about 5,500 compounds went through this assay and about 2,000 (36%) were called active. Not shown: some 18% with an inconclusive outcome. The list shows a part of the results.
Doc: threshold 1 (exclusive). Items with normalized growth beneath it return label 1; others return label 0.

CC[C@@H]1[C@@H](O)N2C3C[C@H]1C1C(O)[C@]4(C[C@@H]12)c1ccccc1N(C)[C@@H]34 (stereo partly specified) ... label 0
CC1=CC(=O)CC(C)(C)C1(O)/C=C/C(C)=C\C(=O)O (stereo unspecified) ... label 0

Okay, now this molecule:
Here's an entry: CC(COc1ccccc1)N(CCCl)Cc1ccccc1 (stereo unspecified) . Is its normalized growth below 1?
label 1

* * *

- PROCEDURE_DETAILS: chemical genetic growth profiling, strain panel (AID 1159580);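 further: tested at 20 µM; growth read once vehicle control cultures reached saturation at 30 °C; 1 = growth at the plate median or of vehicle wells; lower values mean less growth of the strain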
- CONDITION_DETAILS: S. cerevisiae deletion strains, growth OD, locus YLR058C, strain SHM2, hits give low values
The campaign covered roughly 5,500 compounds. About 2,000 (36%) were called active. Not shown: some 18% with an inconclusive outcome. The list shows a part of the results.
Doc: threshold 1 (exclusive). Items with normalized growth beneath it return 1.0; others return 0.0.

CC1(C)CC2C1CCC1(C)OC1CCC2(C)O (stereo not given) ... 0.0
Cc1cccc(CN2CCN(C(c3ccccc3)c3ccc(Cl)cc3)CC2)c1 (stereo not given) ... 1.0

Here's an entry: CC(=O)O[C@H]1CC[C@@]2(C)C(=CCC3C2CC[C@]2(C)C(=O)CCC32)C1 (stereo not given in full) . Is its normalized growth below 1?
1.0

* * *

- PROCEDURE_DETAILS: chemical genetic growth profiling, strain panel (AID 1159580);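 further: tested at 20 µM; growth read once vehicle control cultures reached saturation at 30 °C; 1 = growth at the plate median or of vehicle wells; lower values mean less growth of the strain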
- CONDITION_DETAILS: S. cerevisiae deletion strains, growth OD, locus YOL006C, strain TOP1, hits give low values
The whole screen tested about 5,500 compounds, of which about 2,000 (36%) were called active. Roughly 18% stayed inconclusive and do not appear here. The list shows a part of the results.
Doc: threshold 1 (exclusive). Items with normalized growth beneath it return yes; others return no.

Before answering, review these 10 worked examples.
CCOP(=S)(OCC)Oc1ccc2c(C)c(Cl)c(=O)oc2c1 ... yes
CCn1cc(C(=O)O)c(=O)c2cnc(N3CCNCC3)nc21 ... no
OCC(S)CS (stereo unspecified) ... yes
CC(C)C1=CC2=CCC3[C@](C)(CCC[C@]3(C)C(=O)O)C2CC1 (stereo partly specified) ... yes
CC1(C)C2CC(=O)O[C@@]3(C)C4=CC(=O)O[C@@H](c5ccoc5)[C@]4(C)CCC3[C@@]2(C)C=C[C@H]1O (stereo partly specified) ... no
O=C1OCCN1/N=C\c1ccc([N+](=O)[O-])o1 ... yes
C=CCN1CC[C@]23c4c5ccc(O)c4OC2C(=O)CC[C@@]3(O)[C@H]1C5 (stereo partly specified) ... no
CCOP(=S)(OCC)SCSP(=S)(OCC)OCC ... yes
CCn1cc(C(=O)O)c(=O)c2cc3c(cc21)OCO3 ... no
CCOP(=S)(OCC)SCCSCC ... yes

Here's an entry: Nc1nc2c(c(=O)[nH]1)N(C=O)C(CNc1ccc(C(=O)N[C@@H](CCC(=O)O)C(=O)O)cc1)CN2 (stereo partly specified) . Is its normalized growth below 1?
yes

Here's an entry: CC1(C)CC2C1CCC1(C)OC1CCC2(C)O (stereo unspecified) . Is its normalized growth below 1?
no

Here's an entry: `CCn1cc(C(=O)O)c(=O)c2cnc(N3CCCC3)nc21` . Is its normalized growth below 1?
no

Here's an entry: `O=C(/C=C/c1ccc(O)c(O)c1)O[C@@H]1C[C@](O)(C(=O)O)C[C@@H](O)[C@H]1O` . Is its normalized growth below 1?
no

Here's an entry: CC[C@@H](C(=O)[C@@H](C)[C@@H](O)[C@H](C)[C@@H]1O[C@@H]([C@@H](CC)C(=O)O)CC[C@@H]1C)[C@H]1OC2(C=C[C@@H](O)[C@]3(CC[C@@](C)([C@H]4CC[C@](O)(CC)[C@H](C)O4)O3)O2)[C@H](C)C[C@@H]1C (stereo partly specified) . Is its normalized growth below 1?
yes

Here's an entry: CCC(CCC(C)C1CCC2C3CC=C4C[C@@H](OC(C)=O)CC[C@]4(C)C3CC[C@]12C)C(C)C (stereo partly specified) . Is its normalized growth below 1?
no

Here's an entry: `COc1ccc(/C=C/c2cc(O)cc(O[C@@H]3O[C@H](CO)[C@@H](O)[C@H](O)[C@H]3O)c2)cc1O` . Is its normalized growth below 1?
no
